# Measurement parameters: in acetone, 280.65 K
Readout label: solubility (mole fraction)

> print(dat)
                 smiles.representation  endpoint.result
1  Nc1ccc([N+](=O)[O-])cc1[N+](=O)[O-]           0.0304

---

# Measurement parameters: in ethanol, 313.15 K
Readout label: solubility (mole fraction)

> print(dat)
                 smiles.representation               readout.label  endpoint.result
1  Nc1ccc([N+](=O)[O-])cc1[N+](=O)[O-]  solubility (mole fraction)          0.00468

---

# Measurement parameters: in toluene, 308.15 K
Readout label: solubility (mole fraction)

> print(dat)
                 smiles.representation               readout.label  endpoint.result
1  Nc1ccc([N+](=O)[O-])cc1[N+](=O)[O-]  solubility (mole fraction)          0.00142
